Molecular target: T1, human CD22 (human, UniProt P20273 20-687, limits assumed)
T1 construct: also called SIGLEC-2; human CD22 protein
T1 sequence (looked up): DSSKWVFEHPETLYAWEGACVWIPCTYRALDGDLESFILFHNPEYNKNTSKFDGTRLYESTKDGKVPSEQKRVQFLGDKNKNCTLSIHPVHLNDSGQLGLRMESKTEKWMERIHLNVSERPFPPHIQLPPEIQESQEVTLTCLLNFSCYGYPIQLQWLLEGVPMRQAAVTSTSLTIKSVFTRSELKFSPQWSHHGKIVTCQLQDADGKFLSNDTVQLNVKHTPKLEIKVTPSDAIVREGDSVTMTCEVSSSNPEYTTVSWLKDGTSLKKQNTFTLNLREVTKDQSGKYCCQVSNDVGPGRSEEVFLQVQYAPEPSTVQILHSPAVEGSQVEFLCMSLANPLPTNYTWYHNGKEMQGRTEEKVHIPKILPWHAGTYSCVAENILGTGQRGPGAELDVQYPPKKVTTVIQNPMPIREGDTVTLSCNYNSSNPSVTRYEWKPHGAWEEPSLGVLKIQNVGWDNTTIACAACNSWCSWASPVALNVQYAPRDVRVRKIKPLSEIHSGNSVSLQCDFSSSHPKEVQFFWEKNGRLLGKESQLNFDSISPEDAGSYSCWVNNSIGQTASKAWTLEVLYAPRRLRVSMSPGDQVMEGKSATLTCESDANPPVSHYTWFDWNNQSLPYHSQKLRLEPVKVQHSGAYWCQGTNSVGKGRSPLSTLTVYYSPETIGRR
Assay: ELISA protein and cell-binding assays
endpoint-name: binding result

See these solved cases before continuing.
anti-CD22 heavy chain-only antibody Clone ID 335295 (antibody, V domains shown, Heavy chain-only antibody (UniAb), no light chain) VH: QLQLQESGPGLVKPSETLSLTCTVSGGSISSSSYYWGWIRQPPGKGLEWIGSIYYSGATYYNPSLKNRVTISVDTSRNQFSLNLSSVTAADTAVYYCTREDSSSWRSRGQGTLVTVSS: binds
anti-CD22 heavy chain-only antibody Clone ID 335218 (antibody, V domains shown, Heavy chain-only antibody (UniAb), no light chain) VH: QLQLQESGPGLVKPSETLSLTCTVSGDSISSGDYYWGWIRQPPGKGLEWIGHIYYSGATYYNPSLKNRVTISVDTSRNQFSLKLSSVTAADTAVYYCTREDSSNWRSRGQGTLVTVSS: binds
anti-CD22 heavy chain-only antibody Clone ID 335173 (antibody, V domains shown, Heavy chain-only antibody (UniAb), no light chain) VH: QLQLQESGPGLVKPSETLSLTCTVSGGSITSSSYYWGWIRQPPGKGLEWIGSIYYSGSTYYNPSLKSRVTISVDTSKNQFSLKLSSVTAADTAVYYCTRDDSSNWRSRGQGTLVTVSS: binds
anti-CD22 heavy chain-only antibody Clone ID 335293 (antibody, V domains shown, Heavy chain-only antibody (UniAb), no light chain) VH: QLQLQESGPGLVKPSETLSLTCTVSGDSISSGDYYWGWIRQPPGKGLEWIGHIYYSGATYYNPSLKNRVTISVDTSRNQFSLKLSSVTAADTAVYYCTREDSSSWRSRGQGTLVTVSS: binds
anti-CD22 heavy chain-only antibody Clone ID 335189 (antibody, V domains shown, Heavy chain-only antibody (UniAb), no light chain) VH: QLQLQESGPGLVKPSETLSLTCTVSGGSISSSSYYWGWIRQPPGKGLEWIGSVYYTGATYYNPSLKNRVTISVDTSKNQFSLKLSSVTAADTAVYYCTRDDSSNWRSRGQGTLVTVSS: binds

Batch: binding result for all items listed.
1. anti-CD22 heavy chain-only antibody Clone ID 335254 (antibody, V domains shown, Heavy chain-only antibody (UniAb), no light chain) VH: QLQLQESGPGLVKPSETLSLTCTVSGDSISSGDYYWGWIRQPPGKGLEWIGHIYYSGVTYYNPSLKNRVTISVDTSKNQFSLKLSSVTAADTAVYYCTREDSSSWRSRGQGTLVTVSS
2. anti-CD22 heavy chain-only antibody Clone ID 324508 (antibody, V domains shown, Heavy chain-only antibody (UniAb), no light chain) VH: QLQLQESGPGLVKPSETLSLTCTVSGGSISSGDYYWGWIRQPPGKGLEWIGHIYYSGATYYNPSLENRVTISVDTSKNQFSLKLSSVTAADTAVYYCTRDDSSNWRSRGQGTLVTVSS
3. anti-CD22 heavy chain-only antibody Clone ID 335166 (antibody, V domains shown, Heavy chain-only antibody (UniAb), no light chain) VH: QLQLQESGPGLVKPSETLSLTCTVSGGSISSSSYYWGWIRQPPGKGLEWIGSIYYSGSTYYNPSLKNRVTISVDTSRNQFSLNLSSVTAADTAVYYCTRDDSSNWRSRGQGTLVTVSS
4. anti-CD22 heavy chain-only antibody Clone ID 335261 (antibody, V domains shown, Heavy chain-only antibody (UniAb), no light chain) VH: QLQLQESGPGLVKPSETLSLTCTVSGDSISSGDYYWGWIRQPPGKGLEWIGHIYYSGATYYNPSLENRVTISVDTSKNQFSLKLSSVTAADTAVYYCTREDSSSWRSRGQGTLVTVSS

binds
binds
binds
binds

Could I get binding result for every one of these entries?
1. anti-CD22 heavy chain-only antibody Clone ID 335186 (antibody, V domains shown, Heavy chain-only antibody (UniAb), no light chain) VH: QLQLQESGPGLVKPSETLSLTCTVSGGSISSSSYYWGWIRQPPGKGLEWIGSIYYSGSTYYNPSLKSRVTISVDTSKNQFSLKLSSVTAADTAVYYCTRDDSSNWRSRGQGTLVTVSS
2. anti-CD22 heavy chain-only antibody Clone ID 335158 (antibody, V domains shown, Heavy chain-only antibody (UniAb), no light chain) VH: QLQLQESGPGLVKPSETLSLTCTVSGGSISSGDYYWGWIRQPPGKGLEWIGHIYYSGATYYNPSLKNRVTISVDTSRNQFSLKLSSVTAADTAVYYCTRDDSSNWRSRGQGTLVTVSS
3. anti-CD22 heavy chain-only antibody Clone ID 335220 (antibody, V domains shown, Heavy chain-only antibody (UniAb), no light chain) VH: QLQLQESGPGLVKPSETLSLTCTVSGGSISSSSYYWGWIRQPPGKGLEWIGSIYYSGSTYYNPSLKNRVTISVDTSKNQFSLKLSSVTAADTAVYYCTREDSSNWRSRGQGTLVTVSS
4. anti-CD22 heavy chain-only antibody Clone ID 335263 (antibody, V domains shown, Heavy chain-only antibody (UniAb), no light chain) VH: QLQLQESGPGLVKPSETLSLTCTVSGGSINDNSHYWGWIRQPPGKGLEWIGHIYYSGATYYNPSLKNRVTISVDTSRNQFSLNLSSVTAADTAVYYCTREDSSSWRSRGQGTLVTVSS
5. anti-CD22 heavy chain-only antibody Clone ID 335244 (antibody, V domains shown, Heavy chain-only antibody (UniAb), no light chain) VH: QLQLQESGPGLVKPSETLSLTCTVSGDSISSGDYYWGWIRQPPGKGLEWIGHIYYSGATYYNPSLKNRVTISVDTSRNQFSLNLSSVTAADTAVYYCTREDSSSWRSRGQGTLVTVSS
6. anti-CD22 heavy chain-only antibody Clone ID 335234 (antibody, V domains shown, Heavy chain-only antibody (UniAb), no light chain) VH: QLQLQESGPGLVKPSETLSLTCTVSGDSISSGDYYWGWIRQPPGKGLEWIGNIYYSGATYYNPSLKNRVTISVDTSKNQFSLKLSSVTAADTAVYYCTREDSSNWRSRGQGTLVTVSS

1. binds
2. binds
3. binds
4. binds
5. binds
6. binds
